test: qHTS for differential inhibitors of proliferation of Plasmodium falciparum line 7G8 (AID 1815); conditions: Plasmodium falciparum 7G8 proliferation inhibition; series mostly up to 28.7 µM;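 also: parasite growth measured after three days of incubation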
Results filed as inconclusive are left out. Active and inactive are the calls of the source. Calls follow the shape of the dose curve; as a rule, active = well fitted curve in the direction sought with a large enough effect; inconclusive = small, poorly fitted or top-dose-only effect, or another doubt; inactive = no such curve, though single readings can be large or run the other way.
Could you please pick one outcome from this set? t (active), f (inactive)

[[record]]
molecule = "c1ccc2sc(C3(N4CCCCC4)CCCCC3)cc2c1"
class = "t"

[[record]]
molecule = "NC1CCc2cc(O)c(O)cc2C1 (centres undefined)"
class = "f"

[[record]]
molecule = "NC1CC1c1ccccc1 (centres undefined)"
class = "t"

[[record]]
molecule = "CC1=NN=C(c2ccc(N)cc2)c2cc3c(cc2C1)OCO3"
class = "t"


INPUT: Record request — test call for C[N+](C)(C)CC(=O)O
OUTPUT: f

INPUT: Same for CS(=N)(=O)CC[C@H](N)C(=O)O (some centres undefined)
OUTPUT: f

INPUT: Same for NC(=NCCC[C@H](N)C(=O)O)N[N+](=O)[O-]
OUTPUT: f

INPUT: Same for CN1C2CCC1CC(OC(=O)c1cc(Cl)cc(Cl)c1)C2 (centres undefined)
OUTPUT: t

----------
test: qHTS of pediatric cancer cell lines to identify multiple opportunities for drug repurposing: Primary screen for NB-EBc1 cells (AID 1347095); conditions: NB-EBc1 neuroblastoma viability, CellTiter-Glo luminescence, 48 h; series mostly up to 46 µM
Results filed as inconclusive are left out. Activity calls are given as the source filed them. The call rests on the fitted dose curve; in most records, active means well fitted cell-killing curve with a large enough effect; inconclusive means small, poorly fitted or top-dose-only effect; inactive means no such curve, though single readings can be large or run the other way.
Could you please pick one outcome from this set? 1 for active, -1 for inactive

INPUT: Record request — test call for Cc1c(C(=O)Nc2cccc(C(F)(F)F)c2)cc(-c2ccccc2)n1CCCN1CCOCC1
OUTPUT: 1

INPUT: Same for CCCN1CCO[C@@H]2c3cc(O)ccc3OC[C@@H]21
OUTPUT: 1

INPUT: Same for C[C@H]([C@H](O)CCC(C)(C)O)[C@H]1CC[C@@]2(O)C3=CC(=O)[C@@H]4C[C@@H](O)[C@@H](O)C[C@]4(C)[C@@H]3CC[C@]12C
OUTPUT: -1

----------
conditions: Ebola virus entry assay, green channel fluorescence
Potency and affinity values are given separately. Activity calls are given as the source filed them. How the calls were made is not given here.
Metric: outcome

Here's what some known entries look like.
[[record]]
compound = "CC(C[N+](C)(C)C)OC(N)=O (stereo unspecified)"
metric = "outcome"
experimental_result = "inactive"

[[record]]
compound = "NCCCC(N)(C(=O)O)C(F)F (stereo unspecified)"
metric = "outcome"
experimental_result = "inactive"

[[record]]
compound = "CCOCCOC(C)=O"
metric = "outcome"
experimental_result = "inactive"

[[record]]
compound = "CCN1CCN(c2cc3c(cc2F)c(=O)c(C(=O)O)cn3C2CC2)CC1"
metric = "outcome"
experimental_result = "inactive"

[[record]]
compound = "Cc1cccc(C)c1NC(=O)c1ccccc1C(=O)O"
metric = "outcome"
experimental_result = "inactive"


INPUT: Which outcome value belongs to COC(=O)c1c(Cl)c(Cl)c(C(=O)OC)c(Cl)c1Cl ?
OUTPUT: inactive

INPUT: Same for COC(=O)c1cncn1C(C)c1ccccc1 (stereo unspecified)
OUTPUT: inactive

INPUT: Same for C#CC(C)(CC)OC(=O)c1ccccc1C(=O)O (stereo unspecified)
OUTPUT: inactive

INPUT: Same for c1ccc2[nH]ccc2c1
OUTPUT: inactive

INPUT: Same for Cc1ccc(N)cc1O
OUTPUT: inactive

INPUT: Same for O=C1C(I)=CC(=C(c2cc(I)c(O)c(I)c2)c2ccccc2C(=O)O)C=C1I
OUTPUT: inactive

INPUT: Same for Cn1c(NCCN(CCO)CCCc2ccc([N+](=O)[O-])cc2)cc(=O)n(C)c1=O
OUTPUT: inactive

INPUT: Same for O=S(=O)(O)C(F)(F)C(F)(F)C(F)(F)C(F)(F)C(F)(F)C(F)(F)C(F)(F)C(F)(F)F
OUTPUT: inactive

INPUT: Same for CN(C(=O)C(Cl)Cl)c1ccc(OC(=O)c2ccco2)cc1
OUTPUT: inactive

INPUT: Same for C=CCC1=C(C)C(OC(=O)C2C(C=C(C)C)C2(C)C)CC1=O (stereo unspecified)
OUTPUT: inactive

INPUT: Same for CC(C)CCCC(C)CCCC(C)CCCCC(C)CCCC(C)CCCC(C)C (stereo unspecified)
OUTPUT: inactive

INPUT: Same for Cc1cc(O)ccc1Cl
OUTPUT: inactive

INPUT: Same for O=C(O)Cc1ccccc1Oc1ccc(Cl)cc1Cl
OUTPUT: inactive

INPUT: Same for NCCO
OUTPUT: inactive

INPUT: Same for CC1=C(C(=O)O)N2C(=O)[C@@H](N)[C@H]2SC1
OUTPUT: inactive

----------
test: qHTS profiling of the MIPE4 collection as inhibitors of Plasmodium falciparum (HB3) proliferation (AID 743347);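 also: plate controls were DMSO vehicle wells for no effect and artemisinin wells for full effect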; conditions: P. falciparum HB3 in erythrocytes, SYBR Green DNA, 72 h; at 28.5 µM (top of the series)
Category scheme (growth, % of control): class A = under 30%, class B = from 30% up to 80%, class C = 80% and over

For orientation, consider the following solved cases.
[[record]]
compound = "O=c1cccc2n1CC1CNC[C@H]2C1"
class = "class B"

[[record]]
compound = "CC=C(C)C(=O)O[C@H]1C(C)=C2[C@@H]3OC(=O)[C@@](C)(O)[C@@]3(O)[C@@H](OC(=O)CCC)C[C@](C)(OC(C)=O)[C@@H]2[C@@H]1OC(=O)CCCCCCC"
class = "class A"


INPUT: Which growth, % of control category applies to CC[C@@H]1[C@@H](C)O[C@@](O)([C@@H](C)[C@H](O)[C@H](C)[C@H]2OC(=O)C=CC=C[C@@H](C)[C@@H]([C@@H](C)[C@@H](O)[C@H](C)[C@@]3(O)C[C@H](O[C@H]4C[C@H](O)[C@H](O)[C@H](C)O4)[C@H](CC)[C@@H](C)O3)OC(=O)C=CC=C[C@@H]2C)C[C@H]1O[C@H]1C[C@H](O)[C@H](O)[C@H](C)O1 here?
OUTPUT: class B

----------
experiment: Immunotoxin (SS1P) sensitization/mitigation study. Vehicle arm (DMEM) (AID 1159513); conditions: cell viability with vehicle (DMEM); series mostly up to 46.1 µM
Activity calls are given as the source filed them. The rule behind the calls is not given here.
Could you please pick one outcome from this set? 1 = active, 0 = inactive

[[record]]
mol = "Cc1cc2c(cc1C1(c3ccc(C(=O)O)cn3)CC1)C(C)(C)CCC2(C)C"
class = 0


INPUT: Record request — test call for CCOC(=O)C1=C[C@@]2(CC)CCCN3CCc4c(n1c1ccccc41)[C@H]32
OUTPUT: 0

----------
test: Quantitative High-Throughput drug screen in 47 multiple myeloma cell lines against the NCATS MIPE library collection: PCM6_Riken cell viability assay (AID 1919870); settings: CellTiter-Glo ATP, 48 h; series mostly up to 45.8 µM; also: nearly all actives have a fitted effect of over 30% in size
Records with an inconclusive call do not appear. Activity calls are given as the source filed them. Calls follow the shape of the dose curve; as a rule, active = well fitted cell-killing curve with a large enough effect; inconclusive = small, poorly fitted or top-dose-only effect, or effect the other way; inactive = no such curve, though single readings can be large or run the other way.
Could you please pick one outcome from this set? Y for active, N for inactive

For orientation, consider the following solved cases.
[[record]]
compound = "CCNC(=O)CC1N=C(c2ccc(Cl)cc2)c2cc(OC)ccc2-n2c(C)nnc21 (stereo unspecified)"
class = "Y"

[[record]]
compound = "O=c1[nH]c2ccc(Cl)cc2c(N[C@@H]2CN3CCC2CC3)c1-c1nc2ccccc2[nH]1"
class = "Y"

[[record]]
compound = "CO[C@H]1CCC(O[C@H]2C[C@H]([C@]3(C)CC[C@]4(C[C@H](O)[C@@H](C)[C@@H]([C@@H](C)C=C(C)C(=O)[C@H](C)C[C@H](C)C(=O)O)O4)O3)O[C@]3(O[C@@H]([C@H]4O[C@@](O)(CO)[C@H](C)C[C@H]4C)C[C@H]3C)[C@H]2C)O[C@H]1C (stereo partly specified)"
class = "Y"

[[record]]
compound = "CC=C(C)C(=O)O[C@H]1C(C)=C2[C@@H]3OC(=O)[C@@](C)(O)[C@@]3(O)[C@@H](OC(=O)CCC)C[C@](C)(OC(C)=O)[C@@H]2[C@@H]1OC(=O)CCCCCCC"
class = "Y"

[[record]]
compound = "CC(=O)O[C@@]12CO[C@H]1C[C@H](O)[C@@]1(C)C(=O)[C@H](O)C3=C(C)[C@@H](O)C[C@@](O)([C@@H](OC(=O)c4ccccc4)[C@@H]21)C3(C)C"
class = "Y"


INPUT: Record request — test call for CN[C@@H]1Cc2cccc3[nH]c(=O)n(c23)C1
OUTPUT: N

INPUT: Same for CCc1c(C(=O)C(N)=O)c2c(OCC(=O)O)cccc2n1Cc1ccccc1
OUTPUT: N

INPUT: Same for O=C(N[C@H]1CN2CCC1CC2)c1ccc(Cl)cc1
OUTPUT: Y

----------
system: SC27B; test: qHTS profiling for inhibitors of Plasmodium falciparum proliferation (AID 504749); also: nearly all actives have a fitted effect of over 60% in size; conditions: P. falciparum in erythrocytes, SYBR Green DNA, 72 h; series mostly up to 28.7 µM
Records with an inconclusive call do not appear. Active and inactive are the calls of the source. The call rests on the fitted dose curve; in most records, active means well fitted inhibition curve with a large enough effect; inconclusive means small, poorly fitted or top-dose-only effect; inactive means flat fitted curve, though single readings scatter.
Could you please pick one outcome from this set? active, inactive

For orientation, consider the following solved cases.
[[record]]
molecule = "O=C(O)C(Cl)Cl"
class = "inactive"

[[record]]
molecule = "CC(C)NC(C)Cc1ccc(I)cc1 (configuration not stated)"
class = "inactive"

[[record]]
molecule = "O=[N+]([O-])c1ccc([As](=O)(O)O)cc1"
class = "active"

[[record]]
molecule = "O=C(O)COc1ccccc1"
class = "inactive"

[[record]]
molecule = "COC(C)(C)CCCC(C)C/C=C/C(C)=C/C(=O)OC(C)C (configuration not stated)"
class = "inactive"


INPUT: Record request — test call for CCCCCCCCCC(CC)c1ccc(S(=O)(=O)O)cc1 (configuration not stated)
OUTPUT: inactive

INPUT: Same for CC[N+]1(CCOC(=O)C(O)(c2ccccc2)c2ccccc2)CCCCC1
OUTPUT: inactive

Taken from PubChem BioAssay (NCATS).
